assayed target: VEGF165 (Homo sapiens, UniProt P15692-4 P15692-4:27-191)
Sequence (P15692 other isoform, or with tags, fused parts or gaps): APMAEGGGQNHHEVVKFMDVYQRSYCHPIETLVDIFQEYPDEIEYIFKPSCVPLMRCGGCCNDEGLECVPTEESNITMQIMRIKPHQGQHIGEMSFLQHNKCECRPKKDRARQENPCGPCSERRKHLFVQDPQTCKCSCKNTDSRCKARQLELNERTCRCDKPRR
procedure summary: EMSA; IC buffer, 3 mM CaCl2
experimental conditions: tags: R&D Systems or USB; chain copies: 2 (inferred)
assay readout: pKd
// pKd is dimensionless: -log10 of concentration (M)

Query block: May I ask what pKd has been recorded for RNA132 (ssRNA) RNA: GGGAGGGAAUCAGUGAAUGCUUAUACAUCCCUCCUUGAGCAGUCGAUUAGUUUCGACAGGAGGCUCAC ?
Result block: 8.24
